test system: human PKK mRNA; test: Dose-dependent antisense inhibition of human PKK in HepaRG cells, 0.12-10.00 uM (Example 4); type: cell-based; conditions: Table 32, 0.37 μM, electroporation, ~16 h
Strand notation (5' to 3'): a small letter for the sugar, then the base; units joined by * are phosphorothioate-linked, units joined directly phosphodiester-linked; [ ] holds rarer units or linkages, { } end groups; capitals alone tell only the bases. e = 2'-O-(2-methoxyethyl) (MOE); [5mC] = 5-methylcytosine; d = 2'-deoxy (DNA)
observation type: percent inhibition of PKK at 0.37 μM
Include the unit after the number when you answer.

Input: Quick check: percent inhibition of PKK at 0.37 μM of 530965 (antisense eG*eG*e[5mC]*eA*e[5mC]*dA*dG*dG*dG*d[5mC]*dT*dT*d[5mC]*dA*dG*eT*eG*eA*eG*eA) [compound 530965] ?
Output: 5%

Input: Now give it for 530970 (antisense eT*eT*eG*eG*eT*dG*dT*dG*d[5mC]*d[5mC]*dA*d[5mC]*dT*dT*dT*e[5mC]*eA*eG*eA*eT) [compound 530970] too.
Output: 0%

Input: Now give it for 531002 (eG*eA*eG*e[5mC]*eT*d[5mC]*d[5mC]*d[5mC]*dT*dT*dG*dT*dG*dT*d[5mC]*e[5mC]*e[5mC]*eA*eT*eA; antisense) [compound 531002] too.
Output: 28%

Input: Now give it for 530959 (antisense eT*e[5mC]*eA*eA*e[5mC]*dA*d[5mC]*dT*dG*d[5mC]*dT*dA*dA*d[5mC]*d[5mC]*eT*eT*eA*eG*eA) [compound 530959] too.
Output: 27%

Input: Now give it for 531022 (eG*eT*eA*eA*eT*dG*dT*d[5mC]*dT*dG*dA*d[5mC]*dA*dG*dA*eT*eT*eT*eA*eA; antisense) [compound 531022] too.
Output: 0%

Input: Now give it for 530971 (antisense eG*eG*eA*eA*e[5mC]*dT*dT*dG*dG*dT*dG*dT*dG*d[5mC]*d[5mC]*eA*e[5mC]*eT*eT*eT) [compound 530971] too.
Output: 40%

Input: Now give it for 531231 (eT*eA*eT*e[5mC]*eA*d[5mC]*dT*dG*dT*dA*d[5mC]*dT*dA*dG*dT*eT*eT*e[5mC]*e[5mC]*eT) [compound 531231] too.
Output: 30%

Input: Now give it for 486847 (antisense eA*eG*eG*e[5mC]*eA*dT*dA*dT*dT*dG*dG*dT*dT*dT*dT*eT*eG*eG*eA*eA) [compound 486847] too.
Output: 34%

Input: Now give it for 530933 (antisense eT*eG*eG*eA*eG*dG*dT*dG*dA*dG*dT*d[5mC]*dT*d[5mC]*dT*eT*eG*eT*e[5mC]*eA) [compound 530933] too.
Output: 13%

Input: Now give it for 530988 (eT*e[5mC]*e[5mC]*eA*eA*dA*dG*dT*d[5mC]*dA*dA*d[5mC]*dT*d[5mC]*d[5mC]*e[5mC]*eG*eG*eG*eT; antisense) [compound 530988] too.
Output: 25%

====

Kindly state % inhibition for each of the entries shown.
system: human PKK mRNA; assay: Antisense inhibition of human PKK mRNA in HepaRG cells, 1,000 nM, MOE/deoxy/cEt oligonucleotides (Example 3); type: cell-based; conditions: HepaRG cells, 1,000 nM antisense oligonucleotide, Table 29
Strand notation (5' to 3'): a small letter for the sugar, then the base; units joined by * are phosphorothioate-linked, units joined directly phosphodiester-linked; [ ] holds rarer units or linkages, { } end groups; capitals alone tell only the bases. e = 2'-O-(2-methoxyethyl) (MOE); k = constrained ethyl (cEt); [5mC] = 5-methylcytosine; d = 2'-deoxy (DNA)
Entry rule: numbers only, all in %.

Input: Item: 548539 (antisense e[5mC]*eG*k[5mC]*dG*d[5mC]*dG*dA*dA*dT*dG*d[5mC]*d[5mC]*dT*kG*k[5mC]*e[5mC]) [compound 548539] Test system: human PKK mRNA Read-out: % inhibition Value: ?
Output: 41

Input: Now give it for 548547 (antisense eG*eT*kG*d[5mC]*dG*dA*dT*dT*dA*dA*dG*d[5mC]*d[5mC]*k[5mC]*k[5mC]*eA) [compound 548547] too.
Output: 86

Input: Now give it for 548583 (eG*eG*kG*dA*dA*dT*dT*dT*dA*dT*dG*d[5mC]*dT*kG*k[5mC]*e[5mC]; antisense) [compound 548583] too.
Output: 79

Input: Now give it for 548537 (antisense e[5mC]*e[5mC]*kT*d[5mC]*dA*dA*dT*d[5mC]*d[5mC]*d[5mC]*dA*dA*d[5mC]*k[5mC]*k[5mC]*eA) [compound 548537] too.
Output: 0

Input: Now give it for 548587 (eT*eT*k[5mC]*dT*dG*dG*dG*dA*dA*dA*d[5mC]*dT*d[5mC]*kT*k[5mC]*eT; antisense) [compound 548587] too.
Output: 45

Input: Now give it for 548575 (eT*eG*kT*d[5mC]*d[5mC]*dT*dT*dT*dA*dA*dA*dG*dT*kA*kT*e[5mC]; antisense) [compound 548575] too.
Output: 18

Input: Now give it for 548595 (eG*eG*kA*dT*dG*dA*dG*dA*dT*dG*d[5mC]*dA*dT*k[5mC]*k[5mC]*eA; antisense) [compound 548595] too.
Output: 8

Input: Now give it for 548570 (eA*eT*kG*d[5mC]*d[5mC]*dT*dT*dG*dT*dG*d[5mC]*d[5mC]*dT*kA*kT*eT; antisense) [compound 548570] too.
Output: 74

Input: Now give it for 548584 (eT*eG*kA*dT*dG*dA*dA*dG*dT*dT*d[5mC]*d[5mC]*dA*k[5mC]*k[5mC]*eT; antisense) [compound 548584] too.
Output: 47

Input: Now give it for 548591 (eG*eT*kA*dA*dG*d[5mC]*d[5mC]*dT*dT*d[5mC]*dA*d[5mC]*dA*kG*kG*eG; antisense) [compound 548591] too.
Output: 3

Input: Now give it for 548572 (eG*e[5mC]*kA*dT*dT*dA*d[5mC]*dT*d[5mC]*dA*dG*d[5mC]*dA*kT*kG*eT; antisense) [compound 548572] too.
Output: 63

Input: Now give it for 548567 (antisense eA*eG*kA*dT*d[5mC]*d[5mC]*dG*dG*dA*dA*dT*dA*dA*k[5mC]*k[5mC]*eA) [compound 548567] too.
Output: 67

====

system: human PKK mRNA; experiment: Antisense inhibition of human PKK mRNA in HepaRG cells, 1,000 nM, MOE/deoxy/cEt oligonucleotides (Example 3); assay type: cell-based; conditions: Table 22 experiment; HepaRG cells, electroporation with 1,000 nM antisense oligonucleotide, approx. 24 hours; PKK mRNA by RT-PCR (RTS3454), relative to untreated control cells
Strand notation (5' to 3'): a small letter for the sugar, then the base; units joined by * are phosphorothioate-linked, units joined directly phosphodiester-linked; [ ] holds rarer units or linkages, { } end groups; capitals alone tell only the bases. e = 2'-O-(2-methoxyethyl) (MOE); k = constrained ethyl (cEt); [5mC] = 5-methylcytosine; d = 2'-deoxy (DNA)
Kindly state % inhibition for each of the entries shown.
Entry rule: numbers only, all in %.

Input: Quick check: % inhibition of 547852 (antisense eA*eT*kA*dA*dA*dT*dG*dT*d[5mC]*dT*d[5mC]*dG*dA*kT*kG*eG) [compound 547852] ?
Output: 66

Input: Now give it for 547879 (antisense eT*e[5mC]*kA*dA*d[5mC]*dA*d[5mC]*dT*dG*d[5mC]*dT*dA*dA*k[5mC]*k[5mC]*eT) [compound 547879] too.
Output: 65

Input: Now give it for 547911 (eT*eG*kG*d[5mC]*dA*dA*d[5mC]*d[5mC]*dA*dA*dT*dT*dT*k[5mC]*kT*eG; antisense) [compound 547911] too.
Output: 15

Input: Now give it for 547858 (antisense e[5mC]*eT*k[5mC]*dT*d[5mC]*dA*dT*dA*dT*d[5mC]*dA*dA*d[5mC]*kT*k[5mC]*e[5mC]) [compound 547858] too.
Output: 76

Input: Now give it for 547915 (eT*eG*kG*d[5mC]*dA*dA*d[5mC]*dA*dT*d[5mC]*d[5mC]*dA*d[5mC]*kA*kT*e[5mC]; antisense) [compound 547915] too.
Output: 62

Input: Now give it for 547890 (eT*eT*kG*dT*dT*d[5mC]*d[5mC]*dG*dG*dT*dA*d[5mC]*dT*k[5mC]*kT*eG; antisense) [compound 547890] too.
Output: 90

Input: Now give it for 547747 (eT*e[5mC]*kA*d[5mC]*dT*dG*dT*dA*d[5mC]*dT*dA*dG*dT*kT*kT*e[5mC]) [compound 547747] too.
Output: 91

Input: Now give it for 547846 (antisense eT*e[5mC]*kG*dA*dT*dG*dG*d[5mC]*dA*dA*dG*d[5mC]*dA*k[5mC]*kT*eT) [compound 547846] too.
Output: 42

Input: Now give it for 547871 (antisense eG*e[5mC]*kT*dA*dA*d[5mC]*d[5mC]*dT*dT*dA*dG*dA*d[5mC]*kA*k[5mC]*eA) [compound 547871] too.
Output: 77

Input: Now give it for 547887 (e[5mC]*e[5mC]*kG*dG*dT*dA*d[5mC]*dT*d[5mC]*dT*dG*d[5mC]*d[5mC]*kT*kT*eG; antisense) [compound 547887] too.
Output: 99

Input: Now give it for 547865 (antisense eA*eA*kA*dA*dT*dT*dG*dA*d[5mC]*dT*d[5mC]*d[5mC]*dT*k[5mC]*kT*e[5mC]) [compound 547865] too.
Output: 61

Input: Now give it for 547891 (eA*eT*kT*dG*dT*dT*d[5mC]*d[5mC]*dG*dG*dT*dA*d[5mC]*kT*k[5mC]*eT; antisense) [compound 547891] too.
Output: 88
